# tested-system: DNMT3b (Homo sapiens)
quantity-name: pIC50
pIC50 is a log-scale quantity: -log10 of the concentration expressed in molar.

For Nc1ncnc2c1ncn2[C@@H]1O[C@H](CSCC[C@H](N)C(=O)O)[C@@H](O)[C@H]1O [SAH, reference compound] , what is its reported pIC50?
7.42

====

# tested-system: ASH1L (Homo sapiens, UniProt Q9NR48)
quantity-name: IC50 (nM)
Write the number in nM without appending the unit.

For CN1C(=O)[C@@]23C[C@]4([C@]56C[C@@]78SS[C@@](CO)(C(=O)N7[C@H]5Nc5ccccc56)N(C)C8=O)c5ccccc5N[C@@H]4N2C(=O)[C@]1(CO)SS3 [Chaetocin, reference compound] , what is its reported IC50?
30.8
